Values were extracted from patent US20240067660A1.

Biological target: UniProt:Q07820
Assay: Terbium labeled Mcl-1 HTRF binding assay with Cy5-labeled BIM BH3 peptide
Settings: first table; [L]=8 nM, Kd=10 nM; before recalibration of the equipment
Test Readout: pKi
In plain terms, pKi is the concentration in mol/L turned into minus its base-10 logarithm.

Known results for molecules:
CCOC[C@H]1/C(F)=C/C[C@H](C)[C@@H](C)S(=O)(=O)NC(=O)c2ccc3c(c2)N(C[C@@H]2CCN21)C[C@@]1(CCCc2cc(Cl)ccc21)CO3 [Compound 16] :: 9.08
C[C@@H]1[C@@H](C)C/C=C(\F)[C@H](COCC(=O)O)N2CC[C@H]2CN2C[C@@]3(CCCc4cc(Cl)ccc43)COc3ccc(cc32)C(=O)NS1(=O)=O [Compound 17] :: 9.89

Missing value: pKi, UniProt:Q07820, entry COC[C@H]1/C=C/C[C@@H](C)[C@@H](C)S(=O)(=O)NC(=O)c2ccc3c(c2)N(C[C@@H]2CCN21)C[C@@]1(CCCc2cc(Cl)ccc21)CO3 [Compound 4] . Fill in?
8.70

Missing value: pKi, UniProt:Q07820, entry C[C@@H]1[C@@H](C)C/C=C(\F)[C@H](COc2ccccn2)N2CC[C@H]2CN2C[C@@]3(CCCc4cc(Cl)ccc43)COc3ccc(cc32)C(=O)NS1(=O)=O [Compound 11] . Fill in?
8.40

Missing value: pKi, UniProt:Q07820, entry COC[C@@H]1/C=C/C[C@@H](C)[C@@H](C)S(=O)(=O)NC(=O)c2ccc3c(c2)N(C[C@@H]2CCN21)C[C@@]1(CCCc2cc(Cl)ccc21)CO3 [Compound 7] . Fill in?
9.08

Missing value: pKi, UniProt:Q07820, entry COCCCOC[C@H]1/C(F)=C/C[C@H](C)[C@@H](C)S(=O)(=O)NC(=O)c2ccc3c(c2)N(C[C@@H]2CCN21)C[C@@]1(CCCc2cc(Cl)ccc21)CO3 [Compound 22] . Fill in?
8.89

Missing value: pKi, UniProt:Q07820, entry C[C@@H]1[C@@H](C)C/C=C(\F)[C@H](COCCCN2CCOCC2)N2CC[C@H]2CN2C[C@@]3(CCCc4cc(Cl)ccc43)COc3ccc(cc32)C(=O)NS1(=O)=O [Compound 25] . Fill in?
9.70

Missing value: pKi, UniProt:Q07820, entry C[C@@H]1[C@@H](C)C/C=C/CN2CC[C@H]2CN2C[C@@]3(CCCc4cc(Cl)ccc43)COc3ccc(cc32)C(=O)NS1(=O)=O [Compound 3] . Fill in?
8.50

* * *

Target: Myeloid Cell Leukemia 1(Mcl-1) (Homo sapiens (Human), UniProt Q07820)
Sequence (Q07820 whole entry): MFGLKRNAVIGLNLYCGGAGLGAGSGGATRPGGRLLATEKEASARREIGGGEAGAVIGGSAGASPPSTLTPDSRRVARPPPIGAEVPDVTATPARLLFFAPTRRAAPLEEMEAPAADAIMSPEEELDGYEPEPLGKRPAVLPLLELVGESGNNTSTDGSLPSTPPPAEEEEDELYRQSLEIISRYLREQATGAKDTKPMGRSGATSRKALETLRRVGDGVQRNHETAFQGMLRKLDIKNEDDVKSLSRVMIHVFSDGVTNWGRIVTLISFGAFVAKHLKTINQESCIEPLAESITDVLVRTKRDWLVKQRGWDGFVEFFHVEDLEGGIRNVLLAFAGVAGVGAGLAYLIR
Test: Terbium labeled Mcl-1 HTRF binding assay with Cy5-labeled BIM BH3 peptide
Details: obtained after recalibration of the equipment; averaged values over several runs
Reported values of Ki for individual entries

Cc1nc(COC[C@H]2/C(F)=C/C[C@H](C)[C@@H](C)S(=O)(=O)NC(=O)c3ccc4c(c3)N(C[C@@H]3CCN32)C[C@@]2(CCCc3cc(Cl)ccc32)CO4)no1 :: 0.47 nM

What value of measured Ki is listed for `C[C@@H]1[C@@H](C)C/C=C(\F)[C@H](COCC(=O)N2CC(F)(F)C2)N2CC[C@H]2CN2C[C@@]3(CCCc4cc(Cl)ccc43)COc3ccc(cc32)C(=O)NS1(=O)=O` ?
0.36 nM

What value of measured Ki is listed for `C[C@@H]1[C@@H](C)C/C=C(\F)C(CO)(CO)N2CCC[C@H]2CN2C[C@@]3(CCCc4cc(Cl)ccc43)COc3ccc(cc32)C(=O)NS1(=O)=O` ?
0.14 nM

What value of measured Ki is listed for `COC[C@H]1/C(F)=C/C[C@H](C)[C@@H](C)S(=O)(=O)NC(=O)c2ccc3c(c2)N(C[C@@H]2CCN21)C[C@@]1(CCCc2cc(Cl)ccc21)CO3` ?
0.51 nM
